B1: library; numbered along this chain (parent)
chain: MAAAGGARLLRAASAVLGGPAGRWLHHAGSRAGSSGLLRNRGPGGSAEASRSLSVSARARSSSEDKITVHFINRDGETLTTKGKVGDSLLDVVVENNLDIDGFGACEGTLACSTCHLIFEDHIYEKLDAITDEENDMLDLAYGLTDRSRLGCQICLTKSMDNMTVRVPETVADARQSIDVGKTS

Variants of: B1
Test: scaled log2 fold change in cell abundance, elesclomol vs control (0 = silent mean, 1 = nonsense mean) (scaled log2 ratio); higher = higher viability under elesclomol (loss of FDX1 cuproptosis function);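 also: variant abundance is its share of total variant reads in each endpoint sample, from next-generation sequencing of the integrated ORF PCR-amplified out of genomic DNA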
Conditions: with ABC1 FDX1 KO; elesclomol 5 nM; glucose 10 mM; 14 days
Hi all, reminder that labels come from scaled log2 fold change, split as bottom bin: < 0.03; middle bin: ≥ 0.03 and < 0.3; top bin: ≥ 0.3

>>> group_label("Y124C")
"middle bin"
>>> group_label("A3M")
"bottom bin"
>>> group_label("G102L")
"middle bin"
>>> group_label("T80Q")
"bottom bin"
>>> group_label("T183P")
"middle bin"
>>> group_label("Q176I")
"top bin"
>>> group_label("G102I")
"middle bin"
>>> group_label("V92P")
"top bin"
>>> group_label("T109N")
"bottom bin"
>>> group_label("D121V")
"middle bin"
>>> group_label("F119M")
"middle bin"
>>> group_label("V167G")
"middle bin"
>>> group_label("G33Y")
"middle bin"
>>> group_label("S54G")
"bottom bin"
>>> group_label("A172K")
"middle bin"
>>> group_label("S30H")
"middle bin"
>>> group_label("L156D")
"top bin"
>>> group_label("C112L")
"top bin"
>>> group_label("Q176F")
"bottom bin"
>>> group_label("S35G")
"bottom bin"
>>> group_label("C115Y")
"top bin"
>>> group_label("A2K")
"middle bin"
>>> group_label("C112A")
"top bin"
>>> group_label("A47Y")
"top bin"
>>> group_label("A13V")
"top bin"
>>> group_label("T109I")
"bottom bin"
>>> group_label("A3P")
"middle bin"
>>> group_label("G83C")
"bottom bin"
>>> group_label("R23I")
"top bin"
>>> group_label("G181R")
"bottom bin"
>>> group_label("M160P")
"top bin"
>>> group_label("S148R")
"top bin"
>>> group_label("L9Q")
"bottom bin"
>>> group_label("A12L")
"middle bin"
>>> group_label("C106M")
"top bin"
>>> group_label("Q176G")
"bottom bin"
>>> group_label("Y142G")
"bottom bin"
>>> group_label("V55K")
"bottom bin"
>>> group_label("R41K")
"middle bin"
>>> group_label("L144G")
"bottom bin"
>>> group_label("M160V")
"bottom bin"
>>> group_label("L138S")
"top bin"
>>> group_label("I72K")
"middle bin"
>>> group_label("G151P")
"top bin"
